mass density values for the molecules below.
# applied-conditions: 393.15 K; 3000 kPa; Liquid
reported-endpoint: mass density (kg/m3)

INSERT INTO results (molecule, numeric_result) VALUES
  ('CCCCCCCn1cc[n+](C)c1.O=S(=O)([N-]S(=O)(=O)C(F)(F)F)C(F)(F)F', 1264),
  ('CCn1cc[n+](C)c1.F[B-](F)(F)F [1-ethyl-3-methylimidazolium tetrafluoroborate]', 1231),
  ('CCn1cc[n+](C)c1.O=S(=O)([N-]S(=O)(=O)C(F)(F)F)C(F)(F)F', 1426),
  ('CCCCCCCCn1cc[n+](C)c1.O=S(=O)([N-]S(=O)(=O)C(F)(F)F)C(F)(F)F', 1239);
